Attribute: Kd
biological target: Fc-fusion protein receptor ectodomain of BMPR-IB; experiment: SPR (Biacore T100), receptor ectodomain-Fc on protein G chip, kinetic 1:1 fit; measurement 1
Give a bare numeral; the unit nM is implied.

BINDER	MEASUREMENT UNITS	VALUE MEASURED
recombinant human GDF-5 mutant R399M (ligand) APLATRQGKRPSKNLKAMCSRKALHVNFKDMGWDDWIIAPLEYEAFHCEGLCEFPLRSHLEPTNHAVIQTLMNSMDPESTPPTCCVPTRLSPISILFIDSANNVVYKQYEDMVVESCGCR	nM	0.0025
human GDF-5 mutant S439K (ligand) APLATRQGKRPSKNLKARCSRKALHVNFKDMGWDDWIIAPLEYEAFHCEGLCEFPLRKHLEPTNHAVIQTLMNSMDPESTPPTCCVPTRLSPISILFIDSANNVVYKQYEDMVVESCGCR	nM	0.01

What does the record list as Kd for recombinant human GDF-5 mutant R399E (ligand) APLATRQGKRPSKNLKAECSRKALHVNFKDMGWDDWIIAPLEYEAFHCEGLCEFPLRSHLEPTNHAVIQTLMNSMDPESTPPTCCVPTRLSPISILFIDSANNVVYKQYEDMVVESCGCR ?
0.172

What does the record list as Kd for recombinant human GDF-5 mutant W414R (ligand) APLATRQGKRPSKNLKARCSRKALHVNFKDMGRDDWIIAPLEYEAFHCEGLCEFPLRSHLEPTNHAVIQTLMNSMDPESTPPTCCVPTRLSPISILFIDSANNVVYKQYEDMVVESCGCR ?
0.03
